Can you tell me solubility for the items I'm about to list?
- assay-remarks: Solubility of the APIs in ethanol and water vehicles
- Type: physicochemical
- condition-details: water and ethanol vehicles, aqueous with cosolvent or surfactant or cyclodextrin, 20% ethanol; read-out: Solubility, 10 mg/ml API solution

Task item: Entry CO[C@H]1C[C@@H]2CC[C@@H](C)[C@@](O)(O2)C(=O)C(=O)N2CCCC[C@H]2C(=O)O[C@H]([C@H](C)C[C@@H]2CC[C@@H](O)[C@H](OC)C2)CC(=O)[C@H](C)/C=C(\C)[C@@H](O)[C@@H](OC)C(=O)[C@H](C)C[C@H](C)/C=C/C=C/C=C/1C : reported solubility = ?
Reply: < 10000 µg/mL

Task item: Entry C=CC[C@@H]1/C=C(\C)C[C@H](C)C[C@H](OC)[C@H]2O[C@@](O)(C(=O)C(=O)N3CCCC[C@H]3C(=O)O[C@H](/C(C)=C/[C@@H]3CC[C@@H](O)[C@H](OC)C3)[C@H](C)[C@@H](O)CC1=O)[C@H](C)C[C@@H]2OC : reported solubility = ?
Reply: > 10000 µg/mL

Task item: Entry O=C(O)Cc1ccccc1Nc1c(Cl)cccc1Cl : reported solubility = ?
Reply: > 10000 µg/mL

Task item: Entry Cc1ccc(-c2cc(C(F)(F)F)nn2-c2ccc(S(N)(=O)=O)cc2)cc1 : reported solubility = ?
Reply: < 10000 µg/mL

* * *

- assay-remarks: Solubility of the APIs in ethanol and water vehicles
- Assay type: physicochemical
- condition-details: water and ethanol vehicles, aqueous with cosolvent or surfactant or cyclodextrin, 15% ethanol; read-out: Solubility, 10 mg/ml API solution
Can you tell me solubility for the items I'm about to list?

Task item: Entry C=CC[C@@H]1/C=C(\C)C[C@H](C)C[C@H](OC)[C@H]2O[C@@](O)(C(=O)C(=O)N3CCCC[C@H]3C(=O)O[C@H](/C(C)=C/[C@@H]3CC[C@@H](O)[C@H](OC)C3)[C@H](C)[C@@H](O)CC1=O)[C@H](C)C[C@@H]2OC : reported solubility = ?
Reply: > 10000 µg/mL

Task item: Entry O=C(O)Cc1ccccc1Nc1c(Cl)cccc1Cl : reported solubility = ?
Reply: > 10000 µg/mL

Task item: Entry CO[C@H]1C[C@@H]2CC[C@@H](C)[C@@](O)(O2)C(=O)C(=O)N2CCCC[C@H]2C(=O)O[C@H]([C@H](C)C[C@@H]2CC[C@@H](O)[C@H](OC)C2)CC(=O)[C@H](C)/C=C(\C)[C@@H](O)[C@@H](OC)C(=O)[C@H](C)C[C@H](C)/C=C/C=C/C=C/1C : reported solubility = ?
Reply: < 10000 µg/mL

Task item: Entry Cc1ccc(-c2cc(C(F)(F)F)nn2-c2ccc(S(N)(=O)=O)cc2)cc1 : reported solubility = ?
Reply: < 10000 µg/mL

* * *

- assay-remarks: Solubility of the APIs in ethanol and water vehicles
- Type: physicochemical
- condition-details: water and ethanol vehicles, water; read-out: Solubility, 10 mg/ml API solution
measured-metric: solubility

Task item: Entry CO[C@H]1C[C@@H]2CC[C@@H](C)[C@@](O)(O2)C(=O)C(=O)N2CCCC[C@H]2C(=O)O[C@H]([C@H](C)C[C@@H]2CC[C@@H](O)[C@H](OC)C2)CC(=O)[C@H](C)/C=C(\C)[C@@H](O)[C@@H](OC)C(=O)[C@H](C)C[C@H](C)/C=C/C=C/C=C/1C [Rapamycin] : reported solubility = ?
Reply: < 10000 µg/mL

Task item: Entry C=CC[C@@H]1/C=C(\C)C[C@H](C)C[C@H](OC)[C@H]2O[C@@](O)(C(=O)C(=O)N3CCCC[C@H]3C(=O)O[C@H](/C(C)=C/[C@@H]3CC[C@@H](O)[C@H](OC)C3)[C@H](C)[C@@H](O)CC1=O)[C@H](C)C[C@@H]2OC [Tacrolimus] : reported solubility = ?
Reply: < 10000 µg/mL

Task item: Entry Cc1ccc(-c2cc(C(F)(F)F)nn2-c2ccc(S(N)(=O)=O)cc2)cc1 [Celecoxib] : reported solubility = ?
Reply: < 10000 µg/mL

Task item: Entry O=C(O)Cc1ccccc1Nc1c(Cl)cccc1Cl [Diclofenac] : reported solubility = ?
Reply: > 10000 µg/mL

Values from patent US20210275506A1
